targetOrSystem: human H-PGDS (Homo sapiens (Human), UniProt O60760)
Sequence (O60760 whole entry): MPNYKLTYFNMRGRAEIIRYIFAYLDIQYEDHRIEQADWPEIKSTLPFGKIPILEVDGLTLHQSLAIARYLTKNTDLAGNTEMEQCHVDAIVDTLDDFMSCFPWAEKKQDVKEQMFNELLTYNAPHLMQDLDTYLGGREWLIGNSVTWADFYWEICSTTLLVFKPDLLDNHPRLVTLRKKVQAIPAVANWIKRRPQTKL
assayNotes: Hematopoietic prostaglandin D synthase (H-PGDS) inhibiting action
Type: biochemical
assayEndpoint: pIC50
# pIC50: negative log10 of molar concentration; output just the value

# pIC50 lookup, item O=C(Nc1ccc(C(F)(F)F)cc1)N1CCN(C(=O)c2cccc(F)n2)CC1 [Reference Example 17, reference compound] 5.24

###

targetOrSystem: human H-PGDS (Homo sapiens (Human))
assayNotes: Hematopoietic prostaglandin D synthase (H-PGDS) inhibiting action
Format: biochemical
details: inhibition concentration at 50% relative to H-PGDS; read-out: IC50
The entries below are paired with their reported IC50.
Kindly provide the numeric value in nM only, without the unit symbol.

Consider the reported IC50 for these molecules:
> print(dat)
                                 testsmiles  assayendpoint  readoutnumber
1  Cc1nc(C)n(CCCc2ccc(N3CCC(NC(=O)N4CCN(C(=O)c5cccn5C)CC4)CC3)cc2)n1           IC50             61
2  Cn1cccc1C(=O)N1CCN(C(=O)NC2CCN(c3ccc(C(=O)N4CCOCC4)cc3)CC2)CC1           IC50             31

# IC50 lookup, item Cn1cccc1C(=O)N1CCN(C(=O)NC2CCN(c3ccc(C(=O)NCCN4CCOCC4)cc3)CC2)CC1 27

# IC50 lookup, item Cn1cccc1C(=O)N1CCN(C(=O)NC2CCN(c3ccc(C(=O)N4CCCCC4)cc3)CC2)CC1 41
